- Measurement Description: Three time point assay for plasma, brain and testes distribution after oral dosing
- Format: in vivo, rat
- Condition Summary: male, SD, testes, 10 mg/kg; rat, oral dosing, time point 7 h; read-out: Testes concentration
- Protocol: Exemplary compounds were tested for distribution in plasma, brain and testes tissue following oral dosing of the compounds in rats. Procedures and results are described below. […] For PO dosing, the dose formulation was administered via oral gavage following facility SOPs. The dose volume was determined by the animals' body weight collected on the morning of dosing day. […]
Measurement Type: concentration at 7 h (ng/g)
Report as a plain number; the unit ng/g is understood.

Please give the measured concentration at 7 h for this compound: Cc1ccc(-c2noc([C@H]3C[C@@H]3F)n2)cc1NC(=O)c1cnc2cc(COCC(C)(C)O)ccn12
739
